Tested on: nitric oxide production in lipopolysaccharide-treated RAW264.7 cells
testSummary: Inhibition of LPS-induced NO production in RAW264.7 cells (Griess reagent)
Type: cell-based
assayContext: Mus musculus, RAW 264.7 cells, compounds 30 min then LPS 1.0 μg/mL for 24 h
IC50 strictly under 80 µM means TRUE; at 80 µM or over means FALSE.

>  <molecule>
COc1cc(C(O)C(O)CO)ccc1OC1OC(COC(=O)C=Cc2ccc(O)c(O)c2)C(O)C(O)C1O (stereo not drawn)

>  <classLabel>
TRUE

$$$$
>  <molecule>
O=C(C=Cc1ccc(O)c(O)c1)OCC1OC(Oc2c(-c3ccc(O)c(O)c3)oc3cc(O)cc(O)c3c2=O)C(O)C(O)C1O (stereo not drawn)

>  <classLabel>
FALSE

$$$$
>  <molecule>
O=C(C=Cc1ccc(O)c(O)c1)OCC1OC(OC(=O)C=Cc2ccc(O)c(O)c2)C(O)C(O)C1O [Compound 5, 1,6-di-O-E-caffeoyl-β-D-glucopyranoside]

>  <classLabel>
TRUE

$$$$
>  <molecule>
COc1cc(CCCO)cc(OC)c1O[C@@H]1O[C@H](CO)[C@@H](O)[C@H](O)[C@H]1O [Compound 7, dihydrosyringin]

>  <classLabel>
TRUE

$$$$
>  <molecule>
O=C(C=Cc1ccc(O)c(O)c1)OC1OC(CO)C(O)C(O)C1O [Compound 8, 1-O-E-caffeoyl-β-D-glucopyranoside]

>  <classLabel>
TRUE

$$$$
